Target: CaT1 (Rattus norvegicus, UniProt Q9R186)
Construct: ID; No. 4; expressed in transfected cells; host or cells: Xenopus laevis oocytes injected with synthetic cRNA of the cloned rat cDNA
Test: ^45Ca^2+ uptake assay in Xenopus laevis oocytes expressing CaT1
Assay type: cell-based
Conditions: 1 mM Ca^2+; cation 100 μM
property: inhibition of ^45Ca^2+ uptake by di- and trivalent cations

Q: Tell me measured inhibition of ^45Ca^2+ uptake by di- and trivalent cations for "[Mn+2]" please.
Ans: no significant effects

Q: Note inhibition of ^45Ca^2+ uptake by di- and trivalent cations for the molecule shown: "[Fe+3]"
Ans: no significant effects

###

Target: CaT1 (Rattus norvegicus)
Construct: ID; No. 4; expressed in transfected cells; host or cells: Xenopus laevis oocytes injected with synthetic cRNA of the cloned rat cDNA
Sequence (Q9R186 41-767): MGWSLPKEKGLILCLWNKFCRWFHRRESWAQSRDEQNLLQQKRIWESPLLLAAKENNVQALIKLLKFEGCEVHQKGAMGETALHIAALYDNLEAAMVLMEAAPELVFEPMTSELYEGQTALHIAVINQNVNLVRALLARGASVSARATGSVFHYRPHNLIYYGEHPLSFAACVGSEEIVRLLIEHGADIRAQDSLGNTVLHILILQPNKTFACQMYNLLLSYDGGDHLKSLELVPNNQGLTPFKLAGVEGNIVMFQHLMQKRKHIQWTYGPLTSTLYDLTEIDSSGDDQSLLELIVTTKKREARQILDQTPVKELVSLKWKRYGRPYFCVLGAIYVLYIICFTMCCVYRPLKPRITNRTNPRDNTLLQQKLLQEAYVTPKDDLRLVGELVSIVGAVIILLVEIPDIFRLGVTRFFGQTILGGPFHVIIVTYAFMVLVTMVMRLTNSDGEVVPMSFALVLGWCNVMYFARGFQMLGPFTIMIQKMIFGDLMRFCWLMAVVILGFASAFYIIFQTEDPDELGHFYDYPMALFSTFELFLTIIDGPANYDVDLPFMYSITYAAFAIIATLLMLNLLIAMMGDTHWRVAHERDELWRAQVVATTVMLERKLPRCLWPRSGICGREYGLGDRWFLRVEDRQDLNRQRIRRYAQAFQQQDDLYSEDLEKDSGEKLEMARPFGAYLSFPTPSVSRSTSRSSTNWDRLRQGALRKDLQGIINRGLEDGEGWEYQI
Experiment: Two-microelectrode voltage clamp of oocytes expressing CaT1
Type: cell-based
Settings: each at 100 μM
property: effect on Ca^2+-evoked currents

Example entries begin here.
Q: Give the measured effect on Ca^2+-evoked currents for "[Ni+2]"
Ans: inhibited

Q: Indicate the recorded effect on Ca^2+-evoked currents value for this molecule: "[Cd+2]"
Ans: inhibited

Q: Quick one: give measured effect on Ca^2+-evoked currents for "[La+3]"
Ans: inhibited

Q: Supply reported effect on Ca^2+-evoked currents belonging to this molecule: "[Mn+2]"
Ans: no observable effects

Q: Please indicate effect on Ca^2+-evoked currents recorded for "[Fe+3]"
Ans: no observable effects

Next:
Q: // fetch effect on Ca^2+-evoked currents given entry "[Gd+3]"
Ans: inhibited

Q: Please report the measured effect on Ca^2+-evoked currents for "[Cu+2]"
Ans: inhibited

Q: Return the recorded effect on Ca^2+-evoked currents value; entry: "[Co+2]"
Ans: inhibited

Q: # return recorded effect on Ca^2+-evoked currents for input "[Pb+2]"
Ans: inhibited

Q: Supply measured effect on Ca^2+-evoked currents of "[Zn+2]" in your reply.
Ans: no observable effects
